- measurement_protocol: Drug level in lung transplant recipient invasive aspergillosis patient plasma at 150 mg, iv QD for 4 consecutive days measured after 5 hrs post last dose by HPLC
- Type: ADME, organism-based
- protocol_conditions: human, read-out: Drug uptake
Numbered stars: 1 amine (or outer) side, 2 acyl side, 3 side chain; on linkers, the order of the positions; unused ones are H or OH. Bridge positions count the residues as written; N and C are the ends. Square brackets hold non-standard residues; d marks the D form. Peptide text beside a SMILES is read from it. * marks the point of attachment. hTyr(3S-OH,4S-OH,3'-OSO3H) = N[C@H](C(=O)O)[C@H](O)[C@@H](O)c1ccc(O)c(OS(=O)(=O)O)c1; Orn(4R-OH,5R-OH) = O=C([C@H](C[C@@H](O)[C@@H](O)N[*:3])N[*:1])[*:2]; Pro(3S-OH,4S-Me) = C[C@H]1CN[C@H](C(=O)O)[C@H]1O; X1 = CCCCCOc1ccc(-c2cc(-c3ccc(C(=O)*)cc3)no2)cc1; Gln(3R-OH) = NC(=O)C[C@@H](O)[C@H](N)C(=O)O; Hyp = O=C(O)[C@@H]1C[C@@H](O)CN1

{"molecule": "CCCCCOc1ccc(-c2cc(-c3ccc(C(=O)N[C@H]4C[C@@H](O)[C@@H](O)NC(=O)[C@@H]5[C@@H](O)[C@@H](C)CN5C(=O)[C@H]([C@H](O)CC(N)=O)NC(=O)[C@H]([C@H](O)[C@@H](O)c5ccc(O)c(OS(=O)(=O)O)c5)NC(=O)[C@@H]5C[C@@H](O)CN5C(=O)[C@H]([C@@H](C)O)NC4=O)cc3)no2)cc1 [MICAFUNGIN] (X1-[Orn(4R-OH,5R-OH)]T[Hyp][hTyr(3S-OH,4S-OH,3'-OSO3H)][Gln(3R-OH)][Pro(3S-OH,4S-Me)]; lactam 1-C)", "concentration at 5 h / ng/mL": 5380}

----------
- measurement_protocol: Volume of distribution in lung transplant recipient invasive aspergillosis patient at 150 mg, iv QD for 4 consecutive days by HPLC
- Type: ADME, organism-based
- protocol_conditions: human, in vivo
Numbered stars: 1 amine (or outer) side, 2 acyl side, 3 side chain; on linkers, the order of the positions; unused ones are H or OH. Bridge positions count the residues as written; N and C are the ends. Square brackets hold non-standard residues; d marks the D form. Peptide text beside a SMILES is read from it. * marks the point of attachment. hTyr(3S-OH,4S-OH,3'-OSO3H) = N[C@H](C(=O)O)[C@H](O)[C@@H](O)c1ccc(O)c(OS(=O)(=O)O)c1; Orn(4R-OH,5R-OH) = O=C([C@H](C[C@@H](O)[C@@H](O)N[*:3])N[*:1])[*:2]; Pro(3S-OH,4S-Me) = C[C@H]1CN[C@H](C(=O)O)[C@H]1O; X1 = CCCCCOc1ccc(-c2cc(-c3ccc(C(=O)*)cc3)no2)cc1; Gln(3R-OH) = NC(=O)C[C@@H](O)[C@H](N)C(=O)O; Hyp = O=C(O)[C@@H]1C[C@@H](O)CN1

{"compound": "CCCCCOc1ccc(-c2cc(-c3ccc(C(=O)N[C@H]4C[C@@H](O)[C@@H](O)NC(=O)[C@@H]5[C@@H](O)[C@@H](C)CN5C(=O)[C@H]([C@H](O)CC(N)=O)NC(=O)[C@H]([C@H](O)[C@@H](O)c5ccc(O)c(OS(=O)(=O)O)c5)NC(=O)[C@@H]5C[C@@H](O)CN5C(=O)[C@H]([C@@H](C)O)NC4=O)cc3)no2)cc1 [MICAFUNGIN] (X1-[Orn(4R-OH,5R-OH)]T[Hyp][hTyr(3S-OH,4S-OH,3'-OSO3H)][Gln(3R-OH)][Pro(3S-OH,4S-Me)]; lactam 1-C)", "Vd (L)": 17.6}
